List of viability, T/C values.
# System: SUM149PT spheroids with HUVEC/MSC, viability
# protocol_text: Anticancer human tumor SUM149PT cell line growth inhibition [GQUAD];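 note: spheroids exposed to drugs for seven days before readout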;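 for viability, T/C: percent viability relative to DMSO vehicle control taken as 100%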
# experimental_context: second compound 10 µM; first compound 0.0999 µM; stronger effect = lower value
observed_property: viability, T/C (%)

INSERT INTO assay_data (molecule, observed_property, result) VALUES
  ('CC[C@@]1(O)C(=O)OCc2c1cc1n(c2=O)Cc2cc3c(CN(C)C)c(O)ccc3nc2-1 + Cc1cnc(CNC(=O)c2c(=O)c3ccc(N4CCCN(C)CC4)nc3n3c2sc2ccccc23)cn1', 'viability, T/C', 2.25),
  ('Cc1[nH]c2ccccc2c1CCNCc1ccc(/C=C/C(=O)NO)cc1 + Cc1[nH]c2ccc(F)cc2c1-c1nc2c3cccnc3c3ncccc3c2[nH]1', 'viability, T/C', 82.2),
  ('CC[C@@]1(O)C(=O)OCc2c1cc1n(c2=O)Cc2cc3c(CN(C)C)c(O)ccc3nc2-1 + CN(C)c1ccc(Nc2c3ccc(NC(=O)CCN4CCCC4)cc3nc3cc(NC(=O)CCN4CCCC4)ccc23)cc1', 'viability, T/C', 48.7),
  ('CC[C@@]1(O)C(=O)OCc2c1cc1n(c2=O)Cc2cc3c(CN(C)C)c(O)ccc3nc2-1 + Cc1[nH]c2ccc(F)cc2c1-c1nc2c3cccnc3c3ncccc3c2[nH]1', 'viability, T/C', 40.5),
  ('CCc1c2c(nc3ccc(O)cc13)-c1cc3c(c(=O)n1C2)COC(=O)[C@]3(O)CC + Cc1[nH]c2ccc(F)cc2c1-c1nc2c3cccnc3c3ncccc3c2[nH]1', 'viability, T/C', 25.3),
  ('Cc1[nH]c2ccccc2c1CCNCc1ccc(/C=C/C(=O)NO)cc1 + Cc1cnc(CNC(=O)c2c(=O)c3ccc(N4CCCN(C)CC4)nc3n3c2sc2ccccc23)cn1', 'viability, T/C', 2.55),
  ('Cn1ncnc1[C@H]1c2n[nH]c(=O)c3cc(F)cc(c23)N[C@@H]1c1ccc(F)cc1 + CN(C)c1ccc(Nc2c3ccc(NC(=O)CCN4CCCC4)cc3nc3cc(NC(=O)CCN4CCCC4)ccc23)cc1', 'viability, T/C', 74.2),
  ('CCc1c2c(nc3ccc(O)cc13)-c1cc3c(c(=O)n1C2)COC(=O)[C@]3(O)CC + CN(C)c1ccc(Nc2c3ccc(NC(=O)CCN4CCCC4)cc3nc3cc(NC(=O)CCN4CCCC4)ccc23)cc1', 'viability, T/C', 37.2),
  ('Cn1ncnc1[C@H]1c2n[nH]c(=O)c3cc(F)cc(c23)N[C@@H]1c1ccc(F)cc1 + Cc1[nH]c2ccc(F)cc2c1-c1nc2c3cccnc3c3ncccc3c2[nH]1', 'viability, T/C', 65.4),
  ('Cc1[nH]c2ccccc2c1CCNCc1ccc(/C=C/C(=O)NO)cc1 + CN(C)c1ccc(Nc2c3ccc(NC(=O)CCN4CCCC4)cc3nc3cc(NC(=O)CCN4CCCC4)ccc23)cc1', 'viability, T/C', 58),
  ('CCc1c2c(nc3ccc(O)cc13)-c1cc3c(c(=O)n1C2)COC(=O)[C@]3(O)CC + Cc1cnc(CNC(=O)c2c(=O)c3ccc(N4CCCN(C)CC4)nc3n3c2sc2ccccc23)cn1', 'viability, T/C', 1.51),
  ('Cn1ncnc1[C@H]1c2n[nH]c(=O)c3cc(F)cc(c23)N[C@@H]1c1ccc(F)cc1 + Cc1cnc(CNC(=O)c2c(=O)c3ccc(N4CCCN(C)CC4)nc3n3c2sc2ccccc23)cn1', 'viability, T/C', 9.31);

====

# Tested on: SUM149PT spheroids with HUVEC/MSC, viability
# protocol_text: Anticancer human tumor SUM149PT cell line growth inhibition [GQUAD];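 note: spheroids exposed to drugs for seven days before readout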
# experimental_context: curve of first compound; second compound 0.316 µM
Measured IC50 accompanies every entry in the list below.
observed_property: IC50 (nM)

INSERT INTO assay_data (compound, observed_property, readout_units, op, result) VALUES
  ('Cn1ncnc1[C@H]1c2n[nH]c(=O)c3cc(F)cc(c23)N[C@@H]1c1ccc(F)cc1 + Cc1[nH]c2ccc(F)cc2c1-c1nc2c3cccnc3c3ncccc3c2[nH]1', 'IC50', 'nM', '=', 305),
  ('COc1cc(C2c3cc4c(cc3C(OC3OC5COC(C)OC5C(O)C3O)C3COC(=O)C23)OCO4)cc(OC)c1O (stereo not given) + Cc1[nH]c2ccc(F)cc2c1-c1nc2c3cccnc3c3ncccc3c2[nH]1', 'IC50', 'nM', '=', 784),
  ('COc1cc(C2c3cc4c(cc3C(OC3OC5COC(C)OC5C(O)C3O)C3COC(=O)C23)OCO4)cc(OC)c1O (stereo not given) + CN(C)c1ccc(Nc2c3ccc(NC(=O)CCN4CCCC4)cc3nc3cc(NC(=O)CCN4CCCC4)ccc23)cc1', 'IC50', 'nM', '=', 1310),
  ('CC1COCCN1c1cc(-c2ccnn2C)c2ccnc(-c3ccn[nH]3)c2n1 (stereo not given) + Cc1cnc(CNC(=O)c2c(=O)c3ccc(N4CCCN(C)CC4)nc3n3c2sc2ccccc23)cn1', 'IC50', 'nM', '<', 31.6),
  ('O=c1[nH]cc(F)c(=O)[nH]1 + Cc1cnc(CNC(=O)c2c(=O)c3ccc(N4CCCN(C)CC4)nc3n3c2sc2ccccc23)cn1', 'IC50', 'nM', '=', 1500);

====

# Tested on: SUM149PT spheroids with HUVEC/MSC, viability
# protocol_text: Anticancer human tumor SUM149PT cell line growth inhibition [GQUAD];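 note: spheroids exposed to drugs for seven days before readout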;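 for viability, T/C: percent viability relative to DMSO vehicle control taken as 100%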
# experimental_context: second compound 1 µM; first compound 3.16 µM; stronger effect = lower value
observed_property: viability, T/C

INSERT INTO assay_data (compound, result) VALUES
  ('CC(=O)O[C@H]1C(=O)[C@@]2(C)[C@H]([C@H](OC(=O)c3ccccc3)[C@]3(O)C[C@H](OC(=O)[C@H](O)[C@@H](NC(=O)c4ccccc4)c4ccccc4)C(C)=C1C3(C)C)[C@]1(OC(C)=O)CO[C@@H]1C[C@@H]2O + Cc1[nH]c2ccc(F)cc2c1-c1nc2c3cccnc3c3ncccc3c2[nH]1', '21.5%'),
  ('CC1COCCN1c1cc(C2(O)CC3CCC(C2)O3)c2cnn(-c3ccn[nH]3)c2n1 (stereo not given) + Cc1[nH]c2ccc(F)cc2c1-c1nc2c3cccnc3c3ncccc3c2[nH]1', '23.6%'),
  ('CC(C)n1c(=O)n(C)c2cnc3cc(F)c(-c4ccc(OCCCN5CCCCC5)nc4)cc3c21 + CN(C)c1ccc(Nc2c3ccc(NC(=O)CCN4CCCC4)cc3nc3cc(NC(=O)CCN4CCCC4)ccc23)cc1', '81.2%'),
  ('C=CCn1c(=O)c2cnc(Nc3ccc(N4CCN(C)CC4)cc3)nc2n1-c1cccc(C(C)(C)O)n1 + Cc1[nH]c2ccc(F)cc2c1-c1nc2c3cccnc3c3ncccc3c2[nH]1', '9.91%'),
  ('CC(C)n1c(=O)n(C)c2cnc3cc(F)c(-c4ccc(OCCCN5CCCCC5)nc4)cc3c21 + Cc1cnc(CNC(=O)c2c(=O)c3ccc(N4CCCN(C)CC4)nc3n3c2sc2ccccc23)cn1', '48.8%');

====

# System: SUM149PT spheroids with HUVEC/MSC, viability
# protocol_text: Anticancer human tumor SUM149PT cell line growth inhibition [GQUAD];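 note: spheroids exposed to drugs for seven days before readout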;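 for viability, T/C: percent viability relative to DMSO vehicle control taken as 100%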
# experimental_context: second compound 1 µM; first compound 1 µM; stronger effect = lower value
observed_property: viability, T/C (%)

INSERT INTO assay_data (compound, observed_property, result) VALUES
  ('CCCS(=O)(=O)Nc1ccc(F)c(C(=O)c2c[nH]c3ncc(-c4ccc(Cl)cc4)cc23)c1F + Cc1cnc(CNC(=O)c2c(=O)c3ccc(N4CCCN(C)CC4)nc3n3c2sc2ccccc23)cn1', 'viability, T/C', 46.6),
  ('COc1cccc2c1C(=O)c1c(O)c3c(c(O)c1C2=O)CC(O)(C(=O)CO)CC3OC1CC(N)C(O)C(C)O1 (stereo unspecified) + Cc1cnc(CNC(=O)c2c(=O)c3ccc(N4CCCN(C)CC4)nc3n3c2sc2ccccc23)cn1', 'viability, T/C', 15.9),
  ('CC1COCCN1c1cc(C2(O)CC3CCC(C2)O3)c2cnn(-c3ccn[nH]3)c2n1 (stereo unspecified) + CN(C)c1ccc(Nc2c3ccc(NC(=O)CCN4CCCC4)cc3nc3cc(NC(=O)CCN4CCCC4)ccc23)cc1', 'viability, T/C', 26.6),
  ('C#Cc1c(F)ccc2cc(O)cc(-c3ncc4c(N5CC6CCC(C5)N6)nc(OCC56CCCN5CC(F)C6)nc4c3F)c12 (stereo unspecified) + Cc1[nH]c2ccc(F)cc2c1-c1nc2c3cccnc3c3ncccc3c2[nH]1', 'viability, T/C', 76.5),
  ('COc1ncnc(C2CC2)c1-c1ncc2cnn(Cc3ccc(-c4nc(C(F)(F)F)cn4C(C)C)cc3)c2n1 + Cc1[nH]c2ccc(F)cc2c1-c1nc2c3cccnc3c3ncccc3c2[nH]1', 'viability, T/C', 92.2),
  ('COc1cc(C2c3cc4c(cc3C(OC3OC5COC(C)OC5C(O)C3O)C3COC(=O)C23)OCO4)cc(OC)c1O (stereo unspecified) + Cc1[nH]c2ccc(F)cc2c1-c1nc2c3cccnc3c3ncccc3c2[nH]1', 'viability, T/C', 54);
